Biological target: recombinant form of Glutaminase 1 (GAC) (Homo sapiens)
Test: Recombinant Enzyme Assay (GAC coupled to GDH, NADH absorbance, no preincubation)
Assay type: biochemical
Details: no preincubation; read-out: GAC Delta N2 IC50 no preinc
pIC50: −log10 of the molar value.
reportedMetric: pIC50

Reference set, count: 10
{"compound": "CC[C@](O)(C(=O)Nc1nnc(CCCCc2nnc(NC(=O)[C@@](O)(CC)c3ccccc3)s2)s1)c1ccccc1", "target": "recombinant form of Glutaminase 1 (GAC) (Homo sapiens)", "val": 6.24}
{"compound": "O=C1CC(C(=O)Nc2nnc(CCCCc3nnc(NC(=O)C4CC(=O)c5ccccc54)s3)s2)c2ccccc21 (stereo not drawn)", "target": "recombinant form of Glutaminase 1 (GAC) (Homo sapiens)", "val": 5.89}
{"compound": "CC(C(=O)Nc1nnc(CCSCCc2nnc(NC(=O)C(C)c3ccccc3Cl)s2)s1)c1ccccc1Cl (stereo not drawn)", "target": "recombinant form of Glutaminase 1 (GAC) (Homo sapiens)", "val": 6.15}
{"compound": "O=C(Nc1nnc(CCSCCc2nnc(NC(=O)C3Cc4cc(Br)ccc4O3)s2)s1)C1Cc2cc(Br)ccc2O1 (stereo not drawn)", "target": "recombinant form of Glutaminase 1 (GAC) (Homo sapiens)", "val": 5.30}
{"compound": "COc1cc(C(O)C(=O)Nc2nnc(CCCCc3nnc(NC(=O)C(O)c4ccc(O)c(OC)c4)s3)s2)ccc1O (stereo not drawn)", "target": "recombinant form of Glutaminase 1 (GAC) (Homo sapiens)", "val": 6.19}
{"compound": "O=C(Cc1ccccc1)Nc1nnc(CCSCc2nnc(NC(=O)Cc3cccc(Cl)c3)s2)s1", "target": "recombinant form of Glutaminase 1 (GAC) (Homo sapiens)", "val": 6.80}
{"compound": "CCOC(=O)Nc1nnc(CCCCc2nnc(NC(=O)Cc3ccccc3)s2)s1 [Compound 369]", "target": "recombinant form of Glutaminase 1 (GAC) (Homo sapiens)", "val": 6.09}
{"compound": "CCOc1ccccc1CC(=O)Nc1nnc(CCCCc2nnc(NC(=O)Cc3ccccc3OCC)s2)s1", "target": "recombinant form of Glutaminase 1 (GAC) (Homo sapiens)", "val": 6.80}
{"compound": "CC(CO)(CO)C(=O)Nc1nnc(CCCCc2nnc(NC(=O)C(C)(CO)CO)s2)s1", "target": "recombinant form of Glutaminase 1 (GAC) (Homo sapiens)", "val": 4.85}
{"compound": "O=C(Cc1cccc(F)c1)Nc1nnc(CCSCCc2nnc(NC(=O)Cc3cccc(F)c3)s2)s1", "target": "recombinant form of Glutaminase 1 (GAC) (Homo sapiens)", "val": 6.62}

A: O=C(Nc1nnc(CCCCc2nnc(NC(=O)C3Oc4ccccc4O3)s2)s1)C1Oc2ccccc2O1
B: Nc1ccc(CC(=O)Nc2nnc(CCCCc3nnc(NC(=O)Cc4ccc(N)cc4)s3)s2)cc1
C: O=C(Cc1ccccc1)Nc1nnc(CCSCCc2nnc(NC(=O)[C@@H]3CCCN3C(=O)C(F)(F)F)s2)s1
D: O=C(Cc1ccccc1)Nc1nnc(CCCCc2nnc(NC(=O)Cc3ccc(F)c(O)c3F)s2)s1
Query: Could you please order the items by pIC50, going from the lowest number to the highest? Dear reader, please state the labels in the requested order.
Result: C, A, B, D

----------
Biological target: recombinant form of Glutaminase 1 (GAC) (Homo sapiens)
Assay: Recombinant Enzyme Assay (GAC coupled to GDH, NADH absorbance, no preincubation)
Format: biochemical
Conditions: no preincubation; read-out: GAC Delta N2 IC50 no preinc
reportedMetric: IC50 (nM)

{"compound": "O=C(Cc1ccc2ncccc2c1)Nc1nnc(CCSCCc2nnc(NC(=O)Cc3ccc4ncccc4c3)s2)s1", "target": "recombinant form of Glutaminase 1 (GAC) (Homo sapiens)", "unit": "nM", "IC50": 600}

I: CC(=O)OC(C(=O)Nc1nnc(CCCCc2nnc(NC(=O)C(OC(C)=O)c3ccccc3)s2)s1)c1ccccc1 (stereo not shown)
II: O=C(Cc1ccccc1)Nc1nnc(CCCCc2nnc(NC(=O)C(O)c3cccc(Cl)c3)s2)s1 (stereo not shown)
III: O=C(Nc1nnc(CCCCc2nnc(NC(=O)C3(c4ccccc4)CC3)s2)s1)C1(c2ccccc2)CC1
Query: Could you please order the items by IC50, going from the lowest number to the highest? Dear reader, please state the labels in the requested order.
Result: II, III, I
